target: Histone deacetylase 3/Nuclear receptor corepressor 2 (HDAC3/NCoR2) (Homo sapiens); assay: Inhibition of full length recombinant human C-terminal His-tagged HDAC3/N-terminal GST-tagged NCOR2 (395 to 489 residues) expressed in baculovirus infected Sf9 cells using fluorogenic HDAC substrate after 30 mins by fluorescence analysis
Sequence (O15379 whole entry, the tested form may be a part): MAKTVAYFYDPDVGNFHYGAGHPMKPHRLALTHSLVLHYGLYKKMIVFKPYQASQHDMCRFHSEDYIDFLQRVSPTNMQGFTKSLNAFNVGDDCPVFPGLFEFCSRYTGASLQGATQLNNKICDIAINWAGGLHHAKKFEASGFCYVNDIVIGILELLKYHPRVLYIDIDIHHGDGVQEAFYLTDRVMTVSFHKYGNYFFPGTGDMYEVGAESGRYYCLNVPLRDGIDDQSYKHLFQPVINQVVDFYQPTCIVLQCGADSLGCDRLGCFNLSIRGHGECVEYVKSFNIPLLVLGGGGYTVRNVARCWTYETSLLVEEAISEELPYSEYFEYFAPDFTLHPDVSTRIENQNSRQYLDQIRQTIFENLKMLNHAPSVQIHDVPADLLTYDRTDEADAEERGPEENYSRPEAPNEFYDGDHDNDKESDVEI
Sequence (Q9Y618 whole entry, further chain, the tested form may be a part): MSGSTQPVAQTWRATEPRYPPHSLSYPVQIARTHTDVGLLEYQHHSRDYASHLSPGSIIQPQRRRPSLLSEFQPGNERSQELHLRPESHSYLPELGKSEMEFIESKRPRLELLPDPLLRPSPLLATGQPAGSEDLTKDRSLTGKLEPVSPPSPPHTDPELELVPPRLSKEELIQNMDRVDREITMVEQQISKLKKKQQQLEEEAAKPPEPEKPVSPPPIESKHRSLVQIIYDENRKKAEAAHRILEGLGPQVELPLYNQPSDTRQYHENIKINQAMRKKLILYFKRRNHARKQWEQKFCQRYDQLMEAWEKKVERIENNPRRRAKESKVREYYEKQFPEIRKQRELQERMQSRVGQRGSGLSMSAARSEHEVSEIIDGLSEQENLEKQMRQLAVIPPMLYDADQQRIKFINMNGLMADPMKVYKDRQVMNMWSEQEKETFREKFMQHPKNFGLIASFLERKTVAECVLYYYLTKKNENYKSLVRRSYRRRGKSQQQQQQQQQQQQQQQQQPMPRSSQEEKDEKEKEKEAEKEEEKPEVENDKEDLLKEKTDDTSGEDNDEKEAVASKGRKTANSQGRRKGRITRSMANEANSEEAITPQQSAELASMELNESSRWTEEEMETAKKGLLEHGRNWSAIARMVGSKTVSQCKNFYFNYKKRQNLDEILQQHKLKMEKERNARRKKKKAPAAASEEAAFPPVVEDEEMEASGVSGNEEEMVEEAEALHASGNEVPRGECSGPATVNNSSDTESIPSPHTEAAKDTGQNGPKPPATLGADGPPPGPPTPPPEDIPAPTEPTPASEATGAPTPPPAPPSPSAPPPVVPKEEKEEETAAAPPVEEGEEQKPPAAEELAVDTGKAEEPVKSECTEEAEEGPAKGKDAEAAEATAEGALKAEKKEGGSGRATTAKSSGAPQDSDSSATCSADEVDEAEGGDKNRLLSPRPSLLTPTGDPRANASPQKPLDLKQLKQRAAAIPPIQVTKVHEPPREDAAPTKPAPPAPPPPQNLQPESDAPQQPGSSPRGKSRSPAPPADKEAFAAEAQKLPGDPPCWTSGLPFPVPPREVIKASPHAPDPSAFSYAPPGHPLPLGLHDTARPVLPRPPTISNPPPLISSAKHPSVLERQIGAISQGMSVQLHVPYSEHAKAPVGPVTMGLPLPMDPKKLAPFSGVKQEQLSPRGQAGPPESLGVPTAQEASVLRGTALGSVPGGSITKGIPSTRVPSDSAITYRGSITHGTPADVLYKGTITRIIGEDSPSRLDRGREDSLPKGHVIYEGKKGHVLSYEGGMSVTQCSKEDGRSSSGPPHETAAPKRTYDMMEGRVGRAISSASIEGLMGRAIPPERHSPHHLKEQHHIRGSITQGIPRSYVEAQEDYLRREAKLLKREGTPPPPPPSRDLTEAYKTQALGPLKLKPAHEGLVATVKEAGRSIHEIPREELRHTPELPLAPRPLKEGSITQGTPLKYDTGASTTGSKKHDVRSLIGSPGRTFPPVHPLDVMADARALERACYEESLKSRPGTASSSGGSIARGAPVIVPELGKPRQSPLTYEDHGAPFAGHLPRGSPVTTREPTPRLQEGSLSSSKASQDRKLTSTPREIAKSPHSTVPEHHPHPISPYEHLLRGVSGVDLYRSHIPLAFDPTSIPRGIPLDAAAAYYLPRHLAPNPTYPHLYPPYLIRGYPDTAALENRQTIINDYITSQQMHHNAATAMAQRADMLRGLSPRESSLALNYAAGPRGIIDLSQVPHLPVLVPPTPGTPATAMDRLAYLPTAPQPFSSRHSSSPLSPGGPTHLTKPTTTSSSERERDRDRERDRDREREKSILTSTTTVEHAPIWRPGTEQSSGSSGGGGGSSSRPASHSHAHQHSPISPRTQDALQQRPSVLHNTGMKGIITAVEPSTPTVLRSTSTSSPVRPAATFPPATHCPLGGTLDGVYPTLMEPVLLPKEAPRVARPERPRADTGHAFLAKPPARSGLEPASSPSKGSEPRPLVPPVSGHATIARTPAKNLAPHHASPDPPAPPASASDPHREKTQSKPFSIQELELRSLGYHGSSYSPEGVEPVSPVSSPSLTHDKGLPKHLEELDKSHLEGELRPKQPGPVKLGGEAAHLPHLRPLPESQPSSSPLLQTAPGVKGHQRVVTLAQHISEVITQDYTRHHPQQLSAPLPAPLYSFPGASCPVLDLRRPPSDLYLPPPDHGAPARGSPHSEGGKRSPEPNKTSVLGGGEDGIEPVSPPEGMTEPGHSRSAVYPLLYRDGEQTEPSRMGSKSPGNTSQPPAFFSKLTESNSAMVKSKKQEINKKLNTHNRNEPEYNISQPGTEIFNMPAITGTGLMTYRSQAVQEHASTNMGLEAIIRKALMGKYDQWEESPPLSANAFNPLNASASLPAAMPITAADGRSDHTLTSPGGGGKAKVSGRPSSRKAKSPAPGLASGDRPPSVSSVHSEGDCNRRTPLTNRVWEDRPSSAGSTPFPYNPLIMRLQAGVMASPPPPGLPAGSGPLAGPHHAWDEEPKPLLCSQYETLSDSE
Please respond with T when measured IC50 is strictly beneath 0.04 µM, and with F in all other cases.

MOLECULE: CCCc1nn(C)c2c(=O)[nH]c(-c3cc(Cc4ccc(CCC(=O)NO)cc4)ccc3OCC)nc12
LABEL CLASS: F

*Q* Does this compound meet the criterion IC50 < 0.04 µM? "CCCc1nn(C)c2c(=O)[nH]c(-c3cc(N(C)C4CCN(c5ncc(C(=O)NO)cn5)CC4)ccc3OCC)nc12"
*A* F

*Q* Confirm or reject: IC50 of "CCCc1nn(C)c2c(=O)[nH]c(-c3cc(CC4CCN(c5ncc(C(=O)NO)cn5)CC4)ccc3OCC)nc12" lies strictly below 0.04 µM
*A* F

*Q* Dear colleague, could you confirm whether IC50 of "CCCc1nn(C)c2c(=O)[nH]c(-c3cc(S(=O)(=O)NC4CCN(c5ncc(C(=O)NO)cn5)CC4)ccc3OCC)nc12" falls below 0.04 µM? Thanks.
*A* F

*Q* Dear reviewer, please state whether "CCCc1nn(C)c2c(=O)[nH]c(-c3cc(NC4CCN(c5ncc(C(=O)NO)cn5)CC4)ccc3OCC)nc12" has IC50 strictly beneath 0.04 µM.
*A* T

*Q* Say whether its IC50 is strictly beneath 0.04 µM. Entry: "CCCc1nn(C)c2c(=O)[nH]c(-c3cc(S(=O)(=O)N4CCN(c5ncc(C(=O)NO)cn5)CC4)ccc3OCC)nc12"
*A* T
